T-47D breast measurements of GI50, listed per entry.

Example cases with answers are listed next.
{"compound": "COc1ccc(NC(=O)n2nc(N)c3ccccc32)cc1OC", "result": "33 µM"}
{"compound": "N#Cc1c(-c2ccc(Cl)cc2)n(O)c2ccccc12", "result": "2.88 µM"}
{"compound": "NC(CSC(c1ccccc1)(c1ccccc1)c1ccc(Cl)cc1)C(=O)O (stereo not drawn)", "result": "0.376 µM"}
{"compound": "CN(C)c1ccc(/C=C(/NC(=O)c2ccccc2)c2nc3ccc(Cl)cc3[nH]2)cc1", "result": "17.5 µM"}
{"compound": "C=C(C)[C@@H]1CC[C@]2(C)[C@H](C(=O)C=C3[C@@H]4C[C@](C)(C(=O)N5CCN(C)CC5)CC[C@]4(C)CC[C@]32C)[C@@]1(C)CCC#N", "result": "4.42 µM"}
{"compound": "CN1CCCNc2c(c(=O)c2=O)NCCCN(C)CCCNc2c(c(=O)c2=O)NCCCN(C)CCCNc2c(c(=O)c2=O)NCCCN(C)CCCNc2c(c(=O)c2=O)NCCCN(C)CCCNc2c(c(=O)c2=O)NCCCN(C)CCCNc2c(c(=O)c2=O)NCCCN(C)CCCNc2c(c(=O)c2=O)NCCC1", "result": "2.06 µM"}
{"compound": "CCC(C)n1cc(C)c2c(C(=O)NCc3c(C)cc(C)[nH]c3=O)cc(Br)cc21 (stereo not drawn)", "result": "20 µM"}

Lab note: next compound to report on.
-- ask Field: GI50 (T-47D breast). Entry: `OCCCN=NNc1ccc(-c2nc3ccccc3[nH]2)cc1`
-- reply 2.15 µM
